Consider the following compounds; for each one, report its Ki.
target: SGK1 (human) (UniProt O00141)
Sequence (O00141 whole entry, looked up): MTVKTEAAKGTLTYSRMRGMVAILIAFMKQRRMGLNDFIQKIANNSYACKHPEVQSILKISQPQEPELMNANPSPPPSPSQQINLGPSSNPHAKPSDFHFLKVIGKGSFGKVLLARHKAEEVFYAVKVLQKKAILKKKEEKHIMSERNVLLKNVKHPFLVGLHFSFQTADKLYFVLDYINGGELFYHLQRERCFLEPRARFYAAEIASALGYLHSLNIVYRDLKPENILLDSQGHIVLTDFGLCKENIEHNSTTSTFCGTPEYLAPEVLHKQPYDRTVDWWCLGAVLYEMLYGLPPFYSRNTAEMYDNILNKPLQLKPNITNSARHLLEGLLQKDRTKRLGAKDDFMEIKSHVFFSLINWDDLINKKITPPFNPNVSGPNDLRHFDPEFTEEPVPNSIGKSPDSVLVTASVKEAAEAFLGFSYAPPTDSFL
// units = µM; emit number, no label

Req: I'd like to know its Ki. The compound in question is Nc1n[nH]c2cccc(-c3ccc(NC(=O)Nc4cc(CO)ccc4F)cc3)c12
Resp: 0.398

Req: Likewise for Cc1ccc(CNc2c(Nc3ccncc3)c(=O)c2=O)cc1 ?
Resp: 3.98

Req: Likewise for Nc1ccc(-c2csc3c(/C=C/c4nc5ccccc5[nH]4)cnc(N)c23)cc1 ?
Resp: 7.94

====

biological target: SGK1 (human)
property: Ki

Req: I'd like to know its Ki. The compound in question is O=C(NCc1ccccc1)Nc1ncc([N+](=O)[O-])s1
Resp: > 10 µM

Req: Likewise for O=c1nc(-c2cc3c(Oc4ccc(I)cc4)cncc3s2)[nH]o1 ?
Resp: 0.794 µM

Req: Likewise for CC(C)(CO)CNc1nccc(-c2c(-c3ccc(F)cc3)nc3c(CCN)nccn23)n1 ?
Resp: > 10 µM

Req: Likewise for COc1ccc(CNC(=O)Nc2ncc([N+](=O)[O-])s2)cc1 ?
Resp: > 10 µM

Req: Likewise for Clc1cc(-c2c[nH]c3ncccc23)cc(NCc2ccccc2)n1 ?
Resp: 0.398 µM

Req: Likewise for Nc1n[nH]c2nnc(-c3ccccc3)c(-c3ccccc3)c12 ?
Resp: 2.51 µM

Req: Likewise for Cc1cc(OC[C@@H]2CC[C@H](C(=O)O)C2)c(NC(=O)Nc2cnc(C#N)cn2)cc1Cl ?
Resp: 6.31 µM

Req: Likewise for S=c1[nH]nc2c3c4c(sc3n3c(=S)[nH]nc3n12)CCC4 ?
Resp: 1.58 µM

Req: Likewise for CN1CCC[C@H]1COc1cncc(CCc2ccccc2)c1 ?
Resp: > 10 µM

Req: Likewise for Cc1cccc(NC(=O)Nc2ccc(-c3csc4ccnc(N)c34)cc2)c1 ?
Resp: > 10 µM

Req: Likewise for CNC(=O)c1ccccc1Nc1nc(Nc2ccc(N3CCOCC3)cc2OC)ncc1Cl ?
Resp: > 7.94 µM

Req: Likewise for O=C(Nc1cnc2[nH]cc(-c3ccccc3)c2c1)c1cccc(F)c1F ?
Resp: 7.94 µM

Req: Likewise for Cn1c2ccccc2c2c3c(c4c5ccccc5n(CCC#N)c4c21)CNC3=O ?
Resp: > 10 µM

Req: Likewise for O=C(Nc1cccc(N2CCOCC2)n1)Nc1ccnc2c(C(F)(F)F)cccc12 ?
Resp: > 10 µM

Req: Likewise for Nc1ncnc2scc(-c3ccc(NC(=O)Nc4ccccc4)cc3)c12 ?
Resp: 3.98 µM

Req: Likewise for CCCCn1c(NC(=O)c2cccc(C#N)c2)nc2cc(N(C)C(=O)C3CCCCC3)ccc21 ?
Resp: > 10 µM

Req: Likewise for COc1cc(/C=C2\S/C(=N\c3ccccc3)NC2=O)ccc1O ?
Resp: 5.01 µM

Req: Likewise for C#Cc1cccc(Nc2ncnc3cc(OCCOC)c(OCCOC)cc23)c1 ?
Resp: > 10 µM

Req: Likewise for O=C1Nc2cc(CCOc3ccc(N4CCOCC4)cc3)ccc2Nc2cc(-c3cn(Cc4cc(F)c(F)c(F)c4)c4cnccc34)ccc21 ?
Resp: > 10 µM

Req: Likewise for CC(C)(C)c1cnc(CSc2cnc(NC(=O)C3CCNCC3)s2)o1 ?
Resp: > 6.31 µM

Req: Likewise for O=c1[nH]c2ccc(Cl)cc2c(-c2ccccc2)c1C1=NNC(c2ccccc2)C1 (configuration not stated) ?
Resp: > 10 µM

Req: Likewise for CN(C)c1cc2sncc2cc1NC(=O)C(=O)O ?
Resp: > 10 µM

Req: Likewise for Nc1nccc2scc(-c3ccc(NC(=O)Nc4cccc(F)c4)cc3)c12 ?
Resp: > 10 µM

Req: Likewise for CS(=O)(=O)Nc1cc2c(cc1Cl)NC(=O)Nc1cnc(C#N)c(n1)OCCCCCO2 ?
Resp: > 10 µM

Req: Likewise for COc1cccc([C@@H](C)NC(=O)c2ccc(-c3ccncc3)cc2)c1 ?
Resp: 0.398 µM

Req: Likewise for CNC(=O)C(C)n1cc(-c2cnc(N)c3c(-c4ccc(NC(=O)Nc5ccc(C)cc5)cc4)csc23)cn1 (configuration not stated) ?
Resp: > 10 µM

Req: Likewise for O=c1nc(-c2ccc3[nH]ncc3c2)cc(-c2ccccc2)[nH]1 ?
Resp: 2 µM

Req: Likewise for Cc1ccc(NC(=O)Nc2ccc(-c3csc4c(-c5cnn(C)c5)cnc(N)c34)cc2)cc1 ?
Resp: > 10 µM

Req: Likewise for CC1=NN(c2cccc(Br)c2)C(=O)/C1=C/c1c(C)c(C#N)c2nc3ccccc3n2c1O ?
Resp: > 10 µM

Req: Likewise for C[C@@H](NC(=O)c1ccc(-c2ccncc2)cc1)c1ccccc1 ?
Resp: 2 µM

Req: Likewise for O=C1NC(=S)S/C1=C1\C(=O)Nc2ccc(Br)cc21 ?
Resp: 2 µM

Req: Likewise for CC(=O)N[C@@H]1CCN(c2nc3[nH]cc(C(=O)O)c(=O)c3c(C)c2F)C1 ?
Resp: > 10 µM

Req: Likewise for CNC(=O)/C=C/c1cnc(N)c2c(-c3ccc4sc(C)nc4c3)csc12 ?
Resp: > 10 µM

Req: Likewise for COC(=O)c1c(-c2ccc(NC(=O)Nc3ccccc3)cc2)c2c(N)ncnn2c1C ?
Resp: 0.631 µM

Req: Likewise for Cc1cc(Cl)ccc1NC(=S)NNC(=O)C(O)(c1ccccc1)c1ccccc1 ?
Resp: 6.31 µM

Req: Likewise for CCCCn1c(NC(=O)c2ccc(C#N)cc2)nc2cc(N(C)C(=O)C3CCCCC3)ccc21 ?
Resp: > 10 µM

Req: Likewise for O=C1Cc2c([nH]c3ccc(Br)cc23)-c2ncccc2N1 ?
Resp: > 10 µM

Req: Likewise for COc1cc(/C=C2\SC(=O)NC2=O)ccc1O ?
Resp: 3.98 µM

Req: Likewise for O=C(N/N=C/c1ccc(O)cc1O)Nc1cccc2nsnc12 ?
Resp: 0.126 µM

Req: Likewise for C/C(=N/NC(=N)N)c1cc(NC(=O)NCCCCCCNC(=O)Nc2cc(/C(C)=N\NC(=N)N)cc(/C(C)=N/NC(=N)N)c2)cc(/C(C)=N/NC(=N)N)c1 ?
Resp: 3.16 µM

Req: Likewise for N[C@H](COc1cncc(-c2ccc3[nH]c(=O)oc3c2)c1)Cc1c[nH]c2ccccc12 ?
Resp: 5.01 µM

Req: Likewise for O=C(Nc1cnccn1)Nc1ccnc2c(C(F)(F)F)cccc12 ?
Resp: > 10 µM
